Provide the recorded viability for the entries that follow.
- TEST PROTOCOL: MRP1 drug-resistance reversers in H69AR cells – cell-based, doxorubicin co-treatment, pilot screen (AID 601)
- RUN PARAMETERS: H69AR cells, CellTiter-Glo, 72 h; compound alone cytotoxicity; at 10 µM
Returns: string containing the numeric result and its unit.

Report viability for `O=C(O)c1ccc(-c2ccc(O)c(F)c2)cc1` please. 82.9%

Subsequent entry: `CC(C)C(=O)Nc1ccc(-c2nc3cccnc3o2)cc1` 95.2%

Subsequent entry: COc1cc(NC(=O)C2C3C=CC(C3)C2C(=O)O)c(OC)cc1Cl (stereo unspecified) 98.3%

Subsequent entry: `CCOc1cccc(OCCCCn2ccnc2)c1` 85.4%

Subsequent entry: `O=C(Nc1ccc2c(c1)OCO2)c1ccc(CN2CCOCC2)cc1` 97.3%

Subsequent entry: `CCOC(=O)Cn1c(=O)c(-c2ccccc2N)nc2ccccc21` 75.6%

Subsequent entry: `CCOC(=O)C(C)(C)Sc1nc2c(cnn2-c2ccc(Cl)cc2)c(=O)[nH]1` 81.9%

Subsequent entry: COC(=O)c1ccccc1NC1c2ccccc2C(=O)N1c1cccnc1 (stereo unspecified) 84.7%

Subsequent entry: `Cc1ccc(-c2cc(C(F)F)nc(NCc3cccnc3)n2)cc1` 80.3%

Subsequent entry: Cc1cc(NC(=O)c2cccc(S(=O)(=O)N3CC(c4ccccc4)CC3=O)c2)no1 (stereo unspecified) 97.6%

Subsequent entry: `CCc1cc(=O)n2[nH]c(C)c(-c3ccccc3OC)c2n1` 100%

###

- TEST PROTOCOL: S. cerevisiae growth inhibition in permissive medium (OD615), pilot counter-assay for S. cerevisiae lifespan shortening project, permissive growth control (AID 705)
- RUN PARAMETERS: OD615, 24 h, at 10 µM, stronger effect = higher value
PROPERTY MEASURED: growth inhibition (%)
Note: unit % is implicit; provide only the numeric part.

Report growth inhibition for `Cn1c(NC(=O)C2CCCC2)cc(=O)n(C)c1=O` please. 0.48

Subsequent entry: CC(=O)NC(C)C(=O)OCC(=O)Nc1ccc(Br)cc1 (stereo unspecified) -14.2

Subsequent entry: `COc1c(Cl)cc(-c2noc(C)c2C(=O)NC(C)C)cc1Cl` -17.1

Subsequent entry: `CC1(C)CC(=O)C(C=NCC2CCNCC2)=C(O)C1` -20.1

Subsequent entry: O=C1OCc2cc(NC(=O)C3COc4ccccc4O3)ccc21 (stereo unspecified) -17.8

Subsequent entry: CCc1ccc(C2CC(c3cccc(Cl)c3)n3nc(N)nc3N2)cc1 (stereo unspecified) -3.09

Subsequent entry: `O=C(Cn1nc(Cc2ccncc2)c2ccccc2c1=O)N1CCN(C(=O)c2ccco2)CC1` -0.345

Subsequent entry: `Cc1nnc(SCC(=O)Nc2c(Cl)cccc2Cl)[nH]c1=O` -7.89

Subsequent entry: `O=C(CSc1nnc(Cn2c(=O)sc3ccccc32)n1-c1ccccc1)N1CCCC1` -8.58

Subsequent entry: `CCn1c(=O)c2cc(C(=O)Nc3cc(C)on3)sc2c2ccccc21` -16.6

Subsequent entry: `COc1ccc(C(=O)NCc2nnc(SC)n2C2CCCCC2)cc1` -4.53

###

- TEST PROTOCOL: HUVEC growth inhibition – cell-based, human, primary screen (AID 575);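 further: 100% = median of untreated cell wells with 0.1% DMSO on each plate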
- RUN PARAMETERS: HUVEC proliferation, CellTiter-Glo luminescence, 72 h; at 10 µM; stronger effect = lower value
Provide the recorded viability for the entries that follow.
Note: unit % is implicit; provide only the numeric part.

Report viability for `O=C(Nc1ccccc1)c1cnc2n(c1=O)CCS2` please. 101

Subsequent entry: CSc1nc2c(c(=O)n1C)SC(C)C2 (centres undefined) 103

Subsequent entry: COc1cccc(C2=NOC(C(=O)N3CCN(c4ccccc4)CC3)C2)c1OC (centres undefined) 95.9

Subsequent entry: `O=C(Cn1c(=O)sc2ccccc21)NCCOc1ccccc1F` 108

Subsequent entry: `Cn1cc(Cl)c(C(=O)NC2CCCC2)n1` 108

Subsequent entry: `CCOC(=O)c1c(C)n(OCc2ccccc2)c2ccc3c(no[n+]3[O-])c12` 64.8

Subsequent entry: `CCOC(=O)c1ccccc1NC(=O)c1ccc2c(=O)n3c(nc2c1)CCCCC3` 84.9

Subsequent entry: `CCS(=O)(=O)c1nc2ccccc2n1Cc1ccccc1Cl` 109

Subsequent entry: `Cc1cccc(OCC(=O)Nc2ccc(N3CCCC3)cc2)c1C` 88.2

Subsequent entry: CC(=O)Nc1nnc(SCC(=O)NCC2CCCO2)s1 (centres undefined) 105

Subsequent entry: O=C(c1sc2ccccc2c1Cl)N(Cc1cccs1)C1CCS(=O)(=O)C1 (centres undefined) 73.2

Subsequent entry: `O=C(OCn1nnc2ccccc2c1=O)c1cc2ccccc2o1` 94.6

Subsequent entry: `CCc1cc(=O)n2[nH]c(C)c(-c3ccccc3OC)c2n1` 91.3

Subsequent entry: `CCCCN(CC)CCCNC(=O)c1cc2c(=O)n(C)c3ccccc3c2n1C` 67.5

Subsequent entry: `COc1ccc(-n2nnnc2SCC(=O)N2CCOCC2)cc1` 83.8

Subsequent entry: COC(=O)CN1C(=O)C(O)(CC(=O)c2ccc(C)cc2)c2cc(Br)ccc21 (centres undefined) 88.2

Subsequent entry: `Cc1occc1C(=O)N1CCN(c2ncccn2)CC1` 99.6

Subsequent entry: `CC(C)(C)SCCNC(=O)COc1ccc(Cl)cc1` 113

Subsequent entry: COC(=O)C1=C(C)NC(C)=C(C(=O)OC)C1C1CC=CCC1 (centres undefined) 75.4

Subsequent entry: `CCCCSc1nc(CCC)cc(=O)[nH]1` 91.9

Subsequent entry: `CCCOc1ccc2ccccc2c1/C=N/n1cnnc1` 66.7

Subsequent entry: `Cc1ccc(-c2noc(CN3CCN(c4ccccc4F)CC3)n2)cc1` 121

Subsequent entry: CC1Cc2ccccc2N1C(=O)C12CCC(C)(C(=O)C1)C2(C)C (centres undefined) 92.6

Subsequent entry: CC1CC(NC(=O)c2cnc3n(c2=O)CCS3)CC(C)(C)C1 (centres undefined) 85.8
